The reported numbers originate from patent US20070020196A1.

assay: Solubility of selected steroids enhanced by cyclodextrins (phase solubility); conditions: aqueous cyclodextrin solution, aqueous with cosolvent or surfactant or cyclodextrin, thermodynamic from solid, Solubility of steroid, (SBE)6.1 γ-CD 0.08 M
The label depends only on solubility: rule met if it is at least 7 mM, rule not met if it is smaller.

>>> category_label("C[C@@H]1C[C@H]2[C@@H]3C[C@H](F)C4=CC(=O)C=C[C@]4(C)[C@@]3(F)[C@@H](O)C[C@]2(C)[C@@]1(O)C(=O)SCF [Fluticasone, fluticasone]")
"rule met"
>>> category_label("CC1(C)O[C@@H]2C[C@H]3[C@@H]4CCC5=CC(=O)C=C[C@]5(C)[C@@]4(F)[C@@H](O)C[C@]3(C)[C@]2(C(=O)CO)O1 [Triamcinolone acetonide, triamcinolone acetonide]")
"rule met"
>>> category_label("C[C@@H]1C[C@H]2[C@@H]3CCC4=CC(=O)C=C[C@]4(C)[C@@]3(Cl)[C@@H](O)C[C@]2(C)[C@@]1(OC(=O)c1ccco1)C(=O)CCl [Mometasone furoate, mometasone furoate]")
"rule not met"
>>> category_label("CCC(=O)O[C@]1(C(=O)SCF)[C@H](C)C[C@H]2[C@@H]3C[C@H](F)C4=CC(=O)C=C[C@]4(C)[C@@]3(F)[C@@H](O)C[C@@]21C [Fluticasone propionate, fluticasone propionate]")
"rule not met"
>>> category_label("C[C@@H]1C[C@H]2[C@@H]3CCC4=CC(=O)C=C[C@]4(C)[C@@]3(Cl)[C@@H](O)C[C@]2(C)[C@@]1(O)C(=O)CCl [Mometasone, mometasone]")
"rule met"

---

Catalogue of solubility values
assay: Solubility of selected steroids enhanced by cyclodextrins (phase solubility); conditions: aqueous cyclodextrin solution, aqueous with cosolvent or surfactant or cyclodextrin, thermodynamic from solid, Solubility of steroid, (SBE)2.4 β-CD 0.04 M
endpoint_label: solubility (µM)

>>> numeric_readout("C[C@@H]1C[C@H]2[C@@H]3C[C@H](F)C4=CC(=O)C=C[C@]4(C)[C@@]3(F)[C@@H](O)C[C@]2(C)[C@@]1(O)C(=O)SCF")
128
>>> numeric_readout("CCC(=O)O[C@]1(C(=O)SCF)[C@H](C)C[C@H]2[C@@H]3C[C@H](F)C4=CC(=O)C=C[C@]4(C)[C@@]3(F)[C@@H](O)C[C@@]21C [Fluticasone propionate, fluticasone propionate]")
17

---

assay: Solubility of selected steroids enhanced by cyclodextrins (phase solubility); conditions: aqueous cyclodextrin solution, aqueous with cosolvent or surfactant or cyclodextrin, thermodynamic from solid, Solubility of steroid, (SPE)7 β-CD 0.04 M
Recorded solubility by entry
endpoint_label: solubility (µM)

>>> numeric_readout("C[C@@H]1C[C@H]2[C@@H]3CCC4=CC(=O)C=C[C@]4(C)[C@@]3(Cl)[C@@H](O)C[C@]2(C)[C@@]1(OC(=O)c1ccco1)C(=O)CCl [Mometasone furoate, mometasone furoate]")
72.3
>>> numeric_readout("CCC(=O)O[C@]1(C(=O)SCF)[C@H](C)C[C@H]2[C@@H]3C[C@H](F)C4=CC(=O)C=C[C@]4(C)[C@@]3(F)[C@@H](O)C[C@@]21C [Fluticasone propionate, fluticasone propionate]")
10.5
>>> numeric_readout("C[C@@H]1C[C@H]2[C@@H]3CCC4=CC(=O)C=C[C@]4(C)[C@@]3(Cl)[C@@H](O)C[C@]2(C)[C@@]1(O)C(=O)CCl [Mometasone, mometasone]")
1220
>>> numeric_readout("C[C@@H]1C[C@H]2[C@@H]3C[C@H](F)C4=CC(=O)C=C[C@]4(C)[C@@]3(F)[C@@H](O)C[C@]2(C)[C@@]1(O)C(=O)SCF [Fluticasone, fluticasone]")
939

---

assay: Solubility of selected steroids enhanced by cyclodextrins (phase solubility); conditions: aqueous cyclodextrin solution, aqueous with cosolvent or surfactant or cyclodextrin, thermodynamic from solid, Solubility of steroid, (SBE)7 α-CD 0.04 M
solubility: recorded values
endpoint_label: solubility (µM)

>>> numeric_readout("CCCC1O[C@@H]2C[C@H]3[C@@H]4CCC5=CC(=O)C=C[C@]5(C)[C@H]4[C@@H](O)C[C@]3(C)[C@]2(C(=O)CO)O1 (stereo partly shown) [Budesonide]")
3480
>>> numeric_readout("C[C@@H]1C[C@H]2[C@@H]3CCC4=CC(=O)C=C[C@]4(C)[C@@]3(Cl)[C@@H](O)C[C@]2(C)[C@@]1(O)C(=O)CCl [Mometasone, mometasone]")
550
>>> numeric_readout("C[C@@H]1C[C@H]2[C@@H]3CCC4=CC(=O)C=C[C@]4(C)[C@@]3(Cl)[C@@H](O)C[C@]2(C)[C@@]1(OC(=O)c1ccco1)C(=O)CCl [Mometasone furoate, mometasone furoate]")
301
>>> numeric_readout("CCC(=O)O[C@]1(C(=O)SCF)[C@H](C)C[C@H]2[C@@H]3C[C@H](F)C4=CC(=O)C=C[C@]4(C)[C@@]3(F)[C@@H](O)C[C@@]21C [Fluticasone propionate, fluticasone propionate]")
83.7

---

Entries annotated with measured solubility
experiment: Solubility of selected steroids enhanced by cyclodextrins (phase solubility); conditions: aqueous cyclodextrin solution, aqueous with cosolvent or surfactant or cyclodextrin, thermodynamic from solid, Solubility of steroid, (SPE)5.4 γ-CD 0.08 M
endpoint_label: solubility (mM)

>>> numeric_readout("CCC(=O)O[C@]1(C(=O)SCF)[C@H](C)C[C@H]2[C@@H]3C[C@H](F)C4=CC(=O)C=C[C@]4(C)[C@@]3(F)[C@@H](O)C[C@@]21C [Fluticasone propionate, fluticasone propionate]")
1.4
>>> numeric_readout("C[C@@H]1C[C@H]2[C@@H]3C[C@H](F)C4=CC(=O)C=C[C@]4(C)[C@@]3(F)[C@@H](O)C[C@]2(C)[C@@]1(O)C(=O)SCF")
13.9
>>> numeric_readout("C[C@@H]1C[C@H]2[C@@H]3CCC4=CC(=O)C=C[C@]4(C)[C@@]3(Cl)[C@@H](O)C[C@]2(C)[C@@]1(OC(=O)c1ccco1)C(=O)CCl [Mometasone furoate, mometasone furoate]")
0.513
>>> numeric_readout("CCCC1O[C@@H]2C[C@H]3[C@@H]4CCC5=CC(=O)C=C[C@]5(C)[C@H]4[C@@H](O)C[C@]3(C)[C@]2(C(=O)CO)O1 (some centres unmarked) [Budesonide]")
7.74
>>> numeric_readout("C[C@@H]1C[C@H]2[C@@H]3CCC4=CC(=O)C=C[C@]4(C)[C@@]3(Cl)[C@@H](O)C[C@]2(C)[C@@]1(O)C(=O)CCl")
14.7

---

Here the recorded solubility is given for each entry.
test: Solubility of selected steroids enhanced by cyclodextrins (phase solubility); conditions: aqueous cyclodextrin solution, aqueous with cosolvent or surfactant or cyclodextrin, thermodynamic from solid, Solubility of steroid, (SPE)5.4 γ-CD 0.04 M
endpoint_label: solubility (µM)

>>> numeric_readout("C[C@@H]1C[C@H]2[C@@H]3C[C@H](F)C4=CC(=O)C=C[C@]4(C)[C@@]3(F)[C@@H](O)C[C@]2(C)[C@@]1(O)C(=O)SCF [Fluticasone, fluticasone]")
7600
>>> numeric_readout("CCC(=O)O[C@]1(C(=O)SCF)[C@H](C)C[C@H]2[C@@H]3C[C@H](F)C4=CC(=O)C=C[C@]4(C)[C@@]3(F)[C@@H](O)C[C@@]21C [Fluticasone propionate, fluticasone propionate]")
717
>>> numeric_readout("C[C@@H]1C[C@H]2[C@@H]3CCC4=CC(=O)C=C[C@]4(C)[C@@]3(Cl)[C@@H](O)C[C@]2(C)[C@@]1(OC(=O)c1ccco1)C(=O)CCl [Mometasone furoate, mometasone furoate]")
287
>>> numeric_readout("CCCC1O[C@@H]2C[C@H]3[C@@H]4CCC5=CC(=O)C=C[C@]5(C)[C@H]4[C@@H](O)C[C@]3(C)[C@]2(C(=O)CO)O1 (stereo partly shown) [Budesonide]")
4010

---

Here, each record is paired with measured solubility data.
experiment: physchem; details: water, thermodynamic from solid, [Steroid] Intrinsic Solubility (in H2O)
endpoint_label: solubility

>>> result("CC1(C)O[C@@H]2C[C@H]3[C@@H]4C[C@H](F)C5=CC(=O)C=C[C@]5(C)[C@H]4[C@@H](O)C[C@]3(C)[C@]2(C(=O)CO)O1 [Flunisolide]")
"113 µM"
>>> result("C[C@]12C=CC(=O)C=C1CC[C@@H]1[C@@H]2C(=O)C[C@@]2(C)[C@H]1CC[C@]2(O)C(=O)CO")
"505 µM"

---

test: Solubility of selected steroids enhanced by cyclodextrins (phase solubility); conditions: water, thermodynamic from solid, Solubility of steroid, H2O, no CD
endpoint_label: solubility (µM)

>>> numeric_readout("CCC(=O)O[C@]1(C(=O)SCF)[C@H](C)C[C@H]2[C@@H]3C[C@H](F)C4=CC(=O)C=C[C@]4(C)[C@@]3(F)[C@@H](O)C[C@@]21C [Fluticasone propionate, fluticasone propionate]")
3.9
>>> numeric_readout("C[C@@H]1C[C@H]2[C@@H]3C[C@H](F)C4=CC(=O)C=C[C@]4(C)[C@@]3(F)[C@@H](O)C[C@]2(C)[C@@]1(O)C(=O)SCF [Fluticasone, fluticasone]")
1.6
>>> numeric_readout("CC1(C)O[C@@H]2C[C@H]3[C@@H]4CCC5=CC(=O)C=C[C@]5(C)[C@@]4(F)[C@@H](O)C[C@]3(C)[C@]2(C(=O)CO)O1 [Triamcinolone acetonide, triamcinolone acetonide]")
35.6
>>> numeric_readout("CCCC1O[C@@H]2C[C@H]3[C@@H]4CCC5=CC(=O)C=C[C@]5(C)[C@H]4[C@@H](O)C[C@]3(C)[C@]2(C(=O)CO)O1 (some centres unmarked) [Budesonide]")
65.9
>>> numeric_readout("C[C@@H]1C[C@H]2[C@@H]3CCC4=CC(=O)C=C[C@]4(C)[C@@]3(Cl)[C@@H](O)C[C@]2(C)[C@@]1(OC(=O)c1ccco1)C(=O)CCl [Mometasone furoate, mometasone furoate]")
18.2
